Would you kindly list Vd for each of these compounds?
assay: Pharmacokinetic test in rats; type: in vivo; details: rat; male SD rats, intravenous administration (2.5 mg/kg), plasma; read-out: Vdss
Form entry: enter the amount, then its unit.

Inquiry: Bench note: what Vd did "C/C(=C\[C@H]1CC[C@H](NC(=O)c2cnn(C)c2)CC1)c1coc(CN2Cc3ccc(C(F)(F)F)cc3C2)cc1=O" show?
Reply text: 1.55 L/kg

Inquiry: Bench note: what Vd did "O=c1cc(CN2Cc3ccc(C(F)(F)F)cc3C2)occ1/C=C/[C@H]1CC[C@H](NC(=O)[C@H]2C[C@H](F)C2)CC1" show?
Reply text: 1.47 L/kg

Inquiry: Bench note: what Vd did "[2H]C([2H])([2H])n1cc(C(=O)N[C@H]2CC[C@H](/C=C/c3coc(CN4Cc5ccc(C(F)(F)F)cc5C4)cc3=O)CC2)cn1" show?
Reply text: 0.704 L/kg

Inquiry: Bench note: what Vd did "O=C(CC1CC1)N1CCC(/C=C/c2coc(CN3Cc4ccc(C(F)(F)F)cc4C3)cc2=O)CC1" show?
Reply text: 1.39 L/kg

Inquiry: Bench note: what Vd did "O=c1cc(CN2Cc3ccc(C(F)(F)F)cc3C2)occ1/C=C/[C@H]1CC[C@H](NC(=O)[C@H]2C[C@@H](F)C2)CC1" show?
Reply text: 1.29 L/kg

Inquiry: Bench note: what Vd did "CS(=O)(=O)N1CC(OC(=O)N2CCC(COc3coc(CN4Cc5ccc(C(F)(F)F)cc5C4)cc3=O)CC2)C1" show?
Reply text: 2.53 L/kg

Inquiry: Bench note: what Vd did "CS(=O)(=O)N1CC(OC(=O)N[C@H]2CC[C@H](COc3coc(CN4Cc5ccc(C(F)(F)F)cc5C4)cc3=O)CC2)C1" show?
Reply text: 2.09 L/kg

----------
test: Pharmacokinetic test in rats; assay type: in vivo; conditions: rat, po; male SD rats, intragastric administration (10 mg/kg), plasma
Would you kindly list AUC(0-t) for each of these compounds?
Please respond with the number in ng·h/mL and leave the unit unwritten.

Inquiry: Bench note: what AUC(0-t) did "CS(=O)(=O)N1CC(OC(=O)N[C@H]2CC[C@H](COc3coc(CN4Cc5ccc(C(F)(F)F)cc5C4)cc3=O)CC2)C1" show?
Reply text: 10100

Inquiry: Bench note: what AUC(0-t) did "[2H]C([2H])([2H])n1cc(C(=O)N[C@H]2CC[C@H](CCc3coc(CN4Cc5ccc(C(F)(F)F)cc5C4)cc3=O)CC2)cn1" show?
Reply text: 11400

Inquiry: Bench note: what AUC(0-t) did "O=C(OC1CC1)N1CCC(/C=C/c2coc(CN3Cc4ccc(C(F)(F)F)cc4C3)cc2=O)CC1" show?
Reply text: 13400

Inquiry: Bench note: what AUC(0-t) did "[2H]C([2H])([2H])n1cc(C(=O)N[C@H]2CC[C@H](/C=C/c3coc(CN4Cc5ccc(C(F)(F)F)cc5C4)cc3=O)CC2)cn1" show?
Reply text: 40500

Inquiry: Bench note: what AUC(0-t) did "O=c1cc(CN2Cc3ccc(C(F)(F)F)cc3C2)occ1/C=C/[C@H]1CC[C@H](NC(=O)[C@H]2C[C@@H](F)C2)CC1" show?
Reply text: 17500

Inquiry: Bench note: what AUC(0-t) did "Cn1cc(C(=O)N[C@H]2CC[C@H](COc3coc(CN4Cc5ccc(C(F)(F)F)cc5C4)cc3=O)CC2)cn1" show?
Reply text: 18300

----------
test: Pharmacokinetic test in rats; type: in vivo; conditions: rat; male SD rats, intravenous administration (2.5 mg/kg), plasma
Would you kindly list AUC(0-t) for each of these compounds?
Form entry: enter the amount, then its unit.

Inquiry: Bench note: what AUC(0-t) did Cn1cc(C(=O)N[C@H]2CC[C@H](COc3coc(CN4Cc5ccc(C(F)(F)F)cc5C4)cc3=O)CC2)cn1 [Compound 35] show?
Reply text: 9100 ng·h/mL

Inquiry: Bench note: what AUC(0-t) did O=c1cc(CN2Cc3ccc(C(F)(F)F)cc3C2)occ1/C=C/[C@H]1CC[C@H](NC(=O)[C@H]2C[C@@H](F)C2)CC1 [Compound 100] show?
Reply text: 4660 ng·h/mL

Inquiry: Bench note: what AUC(0-t) did O=C(N[C@H]1CC[C@H](/C=C/c2coc(CN3Cc4ccc(C(F)(F)F)cc4C3)cc2=O)CC1)C1CC1 [Compound 61] show?
Reply text: 5590 ng·h/mL

Inquiry: Bench note: what AUC(0-t) did O=C(CC1CC1)N1CCC(/C=C/c2coc(CN3Cc4ccc(C(F)(F)F)cc4C3)cc2=O)CC1 [Compound 52] show?
Reply text: 3300 ng·h/mL

Inquiry: Bench note: what AUC(0-t) did CS(=O)(=O)N1CC(OC(=O)N2CCC(COc3coc(CN4Cc5ccc(C(F)(F)F)cc5C4)cc3=O)CC2)C1 [Compound 17] show?
Reply text: 1680 ng·h/mL

Inquiry: Bench note: what AUC(0-t) did CS(=O)(=O)N1CC(OC(=O)N[C@H]2CC[C@H](COc3coc(CN4Cc5ccc(C(F)(F)F)cc5C4)cc3=O)CC2)C1 [Compound 64] show?
Reply text: 3440 ng·h/mL

Inquiry: Bench note: what AUC(0-t) did [2H]C([2H])([2H])n1cc(C(=O)N[C@H]2CC[C@H](CCc3coc(CN4Cc5ccc(C(F)(F)F)cc5C4)cc3=O)CC2)cn1 [Compound 118] show?
Reply text: 5200 ng·h/mL

----------
assay: Pharmacokinetic test in rats; assay type: in vivo; conditions: rat; male SD rats, intravenous administration (2.5 mg/kg), plasma
Everything with clearance lower than 10 mL/min/kg is false (0); everything else, including exactly 10 mL/min/kg, is true (1).

Inquiry: Can "O=C(CC1CC1)N1CCC(/C=C/c2coc(CN3Cc4ccc(C(F)(F)F)cc4C3)cc2=O)CC1" be said to have clearance at or above 10 mL/min/kg?
Reply text: true (1)

Inquiry: Can "CS(=O)(=O)N1CC(OC(=O)N2CCC(COc3coc(CN4Cc5ccc(C(F)(F)F)cc5C4)cc3=O)CC2)C1" be said to have clearance at or above 10 mL/min/kg?
Reply text: true (1)

Inquiry: Can "C/C(=C\[C@H]1CC[C@H](NC(=O)c2cnn(C)c2)CC1)c1coc(CN2Cc3ccc(C(F)(F)F)cc3C2)cc1=O" be said to have clearance at or above 10 mL/min/kg?
Reply text: false (0)

Inquiry: Can "CS(=O)(=O)N1CC(OC(=O)N[C@H]2CC[C@H](COc3coc(CN4Cc5ccc(C(F)(F)F)cc5C4)cc3=O)CC2)C1" be said to have clearance at or above 10 mL/min/kg?
Reply text: true (1)

Inquiry: Can "O=c1cc(CN2Cc3ccc(C(F)(F)F)cc3C2)occ1/C=C/[C@H]1CC[C@H](NC(=O)[C@H]2C[C@@H](F)C2)CC1" be said to have clearance at or above 10 mL/min/kg?
Reply text: false (0)

----------
Experiment: Pharmacokinetic test in mice
Type: in vivo
Conditions: mouse, po; male ICR mice, intragastric administration (10 mg/kg), plasma
Description: 4.1. Experimental animals: Male ICR mice, 20-25 g, 6 mice/compound, were purchased from Chengdu Dossy Experimental Animals Co., Ltd. […] Before and after administration, 0.06 mL of blood was taken from the orbit under isoflurane anaesthesia and placed in an EDTAK2 centrifuge tube. […] Before analysis and detection, all samples were stored at -80°C, and the samples were quantitatively analysed by LC-MS/MS.
PARAMETER MEASURED: AUC(0-t) (ng·h/mL)
Please respond with the number in ng·h/mL and leave the unit unwritten.

Inquiry: Bench note: what AUC(0-t) did O=C(N[C@H]1CC[C@H](/C=C/c2coc(CN3Cc4ccc(C(F)(F)F)cc4C3)cc2=O)CC1)[C@H]1CC1(F)F [Compound 90] show?
Reply text: 40600

Inquiry: Bench note: what AUC(0-t) did CS(=O)(=O)N1CC(OC(=O)N2CCC(COc3coc(CN4Cc5ccc(C(F)(F)F)cc5C4)cc3=O)CC2)C1 [Compound 17] show?
Reply text: 17800

Inquiry: Bench note: what AUC(0-t) did [2H]C([2H])([2H])C(=O)N[C@H]1CC[C@H](COc2coc(CN3Cc4ccc(C(F)(F)F)cc4C3)cc2=O)CC1 [Compound 33] show?
Reply text: 8430

Inquiry: Bench note: what AUC(0-t) did O=C(N[C@H]1CC[C@@H](COc2coc(CN3Cc4ccc(C(F)(F)F)cc4C3)cc2=O)CC1)C1COC1 [Compound 54] show?
Reply text: 28100

Inquiry: Bench note: what AUC(0-t) did [2H]C([2H])([2H])n1cc(C(=O)N[C@H]2CC[C@H](CCc3coc(CN4Cc5ccc(C(F)(F)F)cc5C4)cc3=O)CC2)cn1 [Compound 118] show?
Reply text: 28000

Inquiry: Bench note: what AUC(0-t) did Cn1cc(C(=O)N[C@H]2CC[C@H](COc3coc(CN4Cc5ccc(C(F)(F)F)cc5C4)cc3=O)CC2)cn1 [Compound 35] show?
Reply text: 24200

Inquiry: Bench note: what AUC(0-t) did [2H]C([2H])([2H])n1cc(C(=O)N[C@H]2CC[C@H](/C=C/c3coc(CN4Cc5ccc(C(F)(F)F)cc5C4)cc3=O)CC2)cn1 [Compound 81] show?
Reply text: 68500

Inquiry: Bench note: what AUC(0-t) did O=C(N[C@H]1CC[C@H](/C=C/c2coc(CN3Cc4ccc(C(F)(F)F)cc4C3)cc2=O)CC1)C1CC1 [Compound 61] show?
Reply text: 32100

Inquiry: Bench note: what AUC(0-t) did O=C(N[C@H]1CC[C@H](/C=C/c2coc(CN3Cc4ccc(C(F)(F)F)cc4C3)cc2=O)CC1)C1CC(F)(F)C1 [Compound 88] show?
Reply text: 23600

Inquiry: Bench note: what AUC(0-t) did O=C(N[C@H]1CC[C@H](COc2coc(CN3Cc4ccc(C(F)(F)F)cc4C3)cc2=O)CC1)C1CC1 [Compound 15] show?
Reply text: 25400

Inquiry: Bench note: what AUC(0-t) did O=C(N[C@H]1CC[C@H](/C=C/c2coc(CN3Cc4ccc(C(F)(F)F)cc4C3)cc2=O)CC1)[C@@H]1CC1(F)F [Compound 89] show?
Reply text: 52500
